Tested on: Escherichia coli TOP10
Run description: shrunken log2 fold change of peptide-encoding DNA abundance (4.5 h post-induction vs induction); higher = less antimicrobial activity (less host growth inhibition)
Measurement context: time post-induction: 4.5 h; library: site-saturation at positions 5, 18, 19, 20

Sequence entry: RRIRRRPPRLPRPRPRPVTPPRP
shrunken log2 fold change: 0.705
//
Sequence entry: RRIRSRPPRLPRPRPRPQIYPRP
shrunken log2 fold change: -0.354
//
Sequence entry: RRIRSRPPRLPRPRPRPFEMPRP
shrunken log2 fold change: -0.353
//
Sequence entry: RRIRTRPPRLPRPRPRPFCFPRP
shrunken log2 fold change: -0.134
//
Sequence entry: RRIRKRPPRLPRPRPRPNAHPRP
shrunken log2 fold change: 0.208
//
Sequence entry: RRIRQRPPRLPRPRPRPSFAPRP
shrunken log2 fold change: 0.0485
//
Sequence entry: RRIRRRPPRLPRPRPRPTLIPRP
shrunken log2 fold change: 0.157
//
Sequence entry: RRIRNRPPRLPRPRPRPLMLPRP
shrunken log2 fold change: -0.842
//
Sequence entry: RRIRHRPPRLPRPRPRPQTFPRP
shrunken log2 fold change: -0.105
//
Sequence entry: RRIRIRPPRLPRPRPRPLPTPRP
shrunken log2 fold change: 0.0405
//
Sequence entry: RRIRDRPPRLPRPRPRPWFDPRP
shrunken log2 fold change: -0.15
//
Sequence entry: RRIRWRPPRLPRPRPRPNTGPRP
shrunken log2 fold change: -0.096
//
Sequence entry: RRIRTRPPRLPRPRPRPGRHPRP
shrunken log2 fold change: 0.0235
//
Sequence entry: RRIRWRPPRLPRPRPRPLSKPRP
shrunken log2 fold change: -0.0363
//
Sequence entry: RRIRHRPPRLPRPRPRPRPRPRP
shrunken log2 fold change: 0.707
//
Sequence entry: RRIRVRPPRLPRPRPRPVDCPRP
shrunken log2 fold change: 0.014
//
Sequence entry: RRIRYRPPRLPRPRPRPCYEPRP
shrunken log2 fold change: -0.246
//
Sequence entry: RRIRLRPPRLPRPRPRPWMEPRP
shrunken log2 fold change: 0.00489
//
Sequence entry: RRIRRRPPRLPRPRPRPMWHPRP
shrunken log2 fold change: -0.03
//
Sequence entry: RRIRARPPRLPRPRPRPFNKPRP
shrunken log2 fold change: -0.0214
//
Sequence entry: RRIRHRPPRLPRPRPRPKIQPRP
shrunken log2 fold change: -0.484
//
Sequence entry: RRIRYRPPRLPRPRPRPNNKPRP
shrunken log2 fold change: -1.17
//
Sequence entry: RRIRDRPPRLPRPRPRPRVPPRP
shrunken log2 fold change: 0.523
//
Sequence entry: RRIRCRPPRLPRPRPRPGWQPRP
shrunken log2 fold change: 0.331
//
Sequence entry: RRIRNRPPRLPRPRPRPYIHPRP
shrunken log2 fold change: -0.387
//
Sequence entry: RRIRLRPPRLPRPRPRPISGPRP
shrunken log2 fold change: -0.462
//
Sequence entry: RRIRCRPPRLPRPRPRPAVDPRP
shrunken log2 fold change: 0.449
//
Sequence entry: RRIRCRPPRLPRPRPRPMNIPRP
shrunken log2 fold change: -0.693
//
Sequence entry: RRIRWRPPRLPRPRPRPNELPRP
shrunken log2 fold change: 0.073
//
Sequence entry: RRIRFRPPRLPRPRPRPFCKPRP
shrunken log2 fold change: -0.374
//
Sequence entry: RRIRDRPPRLPRPRPRPWTFPRP
shrunken log2 fold change: -0.22
//
Sequence entry: RRIRCRPPRLPRPRPRPSKCPRP
shrunken log2 fold change: -0.266

---

Catalogue of shrunken log2 fold change values
Tested on: Escherichia coli TOP10
Run description: shrunken log2 fold change of peptide-encoding DNA abundance (4.5 h post-induction vs induction); higher = less antimicrobial activity (less host growth inhibition)
Measurement context: time post-induction: 4.5 h; library: site-saturation at positions 5, 18, 19, 20
Readout name: shrunken log2 fold change

Sequence entry: RRIRSRPPRLPRPRPRPNGMPRP
Meas value: -0.0245
//
Sequence entry: RRIRDRPPRLPRPRPRPKFGPRP
Meas value: 0.0019
//
Sequence entry: RRIRGRPPRLPRPRPRPTIPPRP
Meas value: -0.0601
//
Sequence entry: RRIRIRPPRLPRPRPRPERSPRP
Meas value: -0.164
//
Sequence entry: RRIRRRPPRLPRPRPRPKKGPRP
Meas value: 0.403
//
Sequence entry: RRIRWRPPRLPRPRPRPPNTPRP
Meas value: 0.142
//
Sequence entry: RRIRHRPPRLPRPRPRPGYTPRP
Meas value: -0.302
//
Sequence entry: RRIRCRPPRLPRPRPRPKAFPRP
Meas value: -0.0921
//
Sequence entry: RRIRYRPPRLPRPRPRPVGFPRP
Meas value: -0.308
//
Sequence entry: RRIRNRPPRLPRPRPRPQSPPRP
Meas value: -0.0298
//
Sequence entry: RRIRSRPPRLPRPRPRPIRPPRP
Meas value: -0.157
//
Sequence entry: RRIRWRPPRLPRPRPRPQSLPRP
Meas value: 0.00606
//
Sequence entry: RRIRGRPPRLPRPRPRPFNWPRP
Meas value: 0.153
//
Sequence entry: RRIRSRPPRLPRPRPRPGMAPRP
Meas value: 0.0998
//
Sequence entry: RRIRRRPPRLPRPRPRPFMVPRP
Meas value: -0.242

---

Tested on: Escherichia coli TOP10
Run description: shrunken log2 fold change of peptide-encoding DNA abundance (4.5 h post-induction vs induction); higher = less antimicrobial activity (less host growth inhibition)
Measurement context: time post-induction: 4.5 h; library: site-saturation at positions 5, 18, 19, 20
Catalogue of shrunken log2 fold change readings, one per entry.
Readout name: shrunken log2 fold change

Sequence entry: RRIRRRPPRLPRPRPRPMMMPRP
Meas value: 0.0332
//
Sequence entry: RRIRARPPRLPRPRPRPPYWPRP
Meas value: 0.376
//
Sequence entry: RRIRHRPPRLPRPRPRPNEPPRP
Meas value: -0.00438
//
Sequence entry: RRIRSRPPRLPRPRPRPNHFPRP
Meas value: -0.21
//
Sequence entry: RRIRNRPPRLPRPRPRPLNLPRP
Meas value: -0.25
//
Sequence entry: RRIRTRPPRLPRPRPRPHEFPRP
Meas value: -0.175
//
Sequence entry: RRIRERPPRLPRPRPRPGSAPRP
Meas value: 0.151
//
Sequence entry: RRIRFRPPRLPRPRPRPYCIPRP
Meas value: -0.597
//
Sequence entry: RRIRPRPPRLPRPRPRPRGPPRP
Meas value: 0.545
//
Sequence entry: RRIRHRPPRLPRPRPRPRAKPRP
Meas value: 1.14
//
Sequence entry: RRIRHRPPRLPRPRPRPRRDPRP
Meas value: -0.02
//
Sequence entry: RRIRFRPPRLPRPRPRPHSGPRP
Meas value: 0.0508
//
Sequence entry: RRIRLRPPRLPRPRPRPIGWPRP
Meas value: 0.156
//
Sequence entry: RRIRTRPPRLPRPRPRPCHQPRP
Meas value: -0.172
//
Sequence entry: RRIRLRPPRLPRPRPRPRHWPRP
Meas value: 0.679

---

System: Escherichia coli TOP10
Run description: shrunken log2 fold change of peptide-encoding DNA abundance (4.5 h post-induction vs induction); higher = less antimicrobial activity (less host growth inhibition)
Measurement context: time post-induction: 4.5 h; library: site-saturation at positions 5, 18, 19, 20
Hi, to clarify the labels: y covers shrunken log2 fold change from -0.02 upward, n covers anything below -0.02.

Sequence entry: RRIRTRPPRLPRPRPRPRNVPRP
Experimental target: Escherichia coli TOP10
Group: n

Sequence entry: RRIRHRPPRLPRPRPRPPGSPRP
Experimental target: Escherichia coli TOP10
Group: y

Sequence entry: RRIRVRPPRLPRPRPRPYGKPRP
Experimental target: Escherichia coli TOP10
Group: n

Sequence entry: RRIRYRPPRLPRPRPRPAQMPRP
Experimental target: Escherichia coli TOP10
Group: y

Sequence entry: RRIRHRPPRLPRPRPRPDCMPRP
Experimental target: Escherichia coli TOP10
Group: n

Sequence entry: RRIRSRPPRLPRPRPRPENCPRP
Experimental target: Escherichia coli TOP10
Group: y

Sequence entry: RRIRTRPPRLPRPRPRPFQPPRP
Experimental target: Escherichia coli TOP10
Group: y

Sequence entry: RRIRRRPPRLPRPRPRPNCVPRP
Experimental target: Escherichia coli TOP10
Group: y

Sequence entry: RRIRTRPPRLPRPRPRPFNSPRP
Experimental target: Escherichia coli TOP10
Group: n

Sequence entry: RRIRHRPPRLPRPRPRPFQSPRP
Experimental target: Escherichia coli TOP10
Group: y

Sequence entry: RRIRVRPPRLPRPRPRPDNFPRP
Experimental target: Escherichia coli TOP10
Group: y

Sequence entry: RRIRWRPPRLPRPRPRPSITPRP
Experimental target: Escherichia coli TOP10
Group: n

Sequence entry: RRIRHRPPRLPRPRPRPNLTPRP
Experimental target: Escherichia coli TOP10
Group: n

Sequence entry: RRIRFRPPRLPRPRPRPNLRPRP
Experimental target: Escherichia coli TOP10
Group: n

Sequence entry: RRIRGRPPRLPRPRPRPNKSPRP
Experimental target: Escherichia coli TOP10;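 further: peptides expressed intracellularly from a pBAD plasmid library in pooled LB shake-flask culture, induced with 0.3% L-arabinose, DNA abundance read by NGS, three biological replicates, DESeq2 with apeglm shrinkage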
Group: y
